- METHOD DESCRIPTION: Inhibition of Wnt/beta-catenin signaling in mouse CT26 cells assessed as reduction in Axin2 expression incubated for 24 hrs by qPCR analysis
- EXPERIMENTAL SETUP: CT26, 24 h
PARAMETER: IC50 (µM)
The answer is to be given in µM; state only the numeric part.

Guide cases for IC50, answers given:
# SMI, IC50 / µM
rows = [
    ("O=c1c(O)c(-c2ccc(O)c(OCCN3CCCCC3)c2)oc2cc(O)cc(O)c12", 23.1),
    ("O=c1c(O)c(-c2ccc(O)c(O)c2)oc2cc(O)cc(O)c12", 7.7),
    ("CCN(CC)CCOc1cc(-c2oc3cc(O)cc(O)c3c(=O)c2O)ccc1O", 40.7),
    ("CN1CCN(CCCOc2cc(-c3oc4cc(O)cc(O)c4c(=O)c3O)ccc2O)CC1", 2.81),
    ("O=c1c(O)c(-c2ccc(O)c(OCCCN3CCCCCC3)c2)oc2cc(O)cc(O)c12", 34.7),
    ("O=c1c(O)c(-c2ccc(O)c(OCCN3CCCC3)c2)oc2cc(O)cc(O)c12", 17.6),
]

Ask: State its IC50: `O=c1c(O)c(-c2ccc(O)c(OCCN3CCCCCC3)c2)oc2cc(O)cc(O)c12`
Reply: 13.9

Ask: State its IC50: `O=c1c(O)c(-c2ccc(O)c(OCCN3CCOCC3)c2)oc2cc(O)cc(O)c12`
Reply: 38.4

Ask: State its IC50: `O=c1c(O)c(-c2ccc(O)c(OCCCN3CCOCC3)c2)oc2cc(O)cc(O)c12`
Reply: 6.29

Ask: State its IC50: `O=c1c(O)c(-c2ccc(O)c(OCCCN3CCCC3)c2)oc2cc(O)cc(O)c12`
Reply: 19.2

Ask: State its IC50: `CCN(CC)CCCOc1cc(-c2oc3cc(O)cc(O)c3c(=O)c2O)ccc1O`
Reply: 11.2

Ask: State its IC50: `CN1CCN(CCOc2cc(-c3oc4cc(O)cc(O)c4c(=O)c3O)ccc2O)CC1`
Reply: 17.8

Ask: State its IC50: `O=c1c(O)c(-c2ccc(O)c(OCCCN3CCCCC3)c2)oc2cc(O)cc(O)c12`
Reply: 29.7

----------
- System: RKO
- METHOD DESCRIPTION: Antiproliferative activity against human RKO cells assessed as reduction in cell viability incubated for 48 hrs by CCK8 assay
PARAMETER: pIC50
pIC50 is a log-scale quantity: -log10 of the concentration expressed in molar.

Ask: State its pIC50: `CN1CCN(CCCOc2cc(-c3oc4cc(O)cc(O)c4c(=O)c3O)ccc2O)CC1`
Reply: 4.57

----------
- EXPERIMENTAL TARGET: beta-catenin-B-cell lymphoma 9 protein complex (Homo sapiens)
- Sequence (P35222 whole entry): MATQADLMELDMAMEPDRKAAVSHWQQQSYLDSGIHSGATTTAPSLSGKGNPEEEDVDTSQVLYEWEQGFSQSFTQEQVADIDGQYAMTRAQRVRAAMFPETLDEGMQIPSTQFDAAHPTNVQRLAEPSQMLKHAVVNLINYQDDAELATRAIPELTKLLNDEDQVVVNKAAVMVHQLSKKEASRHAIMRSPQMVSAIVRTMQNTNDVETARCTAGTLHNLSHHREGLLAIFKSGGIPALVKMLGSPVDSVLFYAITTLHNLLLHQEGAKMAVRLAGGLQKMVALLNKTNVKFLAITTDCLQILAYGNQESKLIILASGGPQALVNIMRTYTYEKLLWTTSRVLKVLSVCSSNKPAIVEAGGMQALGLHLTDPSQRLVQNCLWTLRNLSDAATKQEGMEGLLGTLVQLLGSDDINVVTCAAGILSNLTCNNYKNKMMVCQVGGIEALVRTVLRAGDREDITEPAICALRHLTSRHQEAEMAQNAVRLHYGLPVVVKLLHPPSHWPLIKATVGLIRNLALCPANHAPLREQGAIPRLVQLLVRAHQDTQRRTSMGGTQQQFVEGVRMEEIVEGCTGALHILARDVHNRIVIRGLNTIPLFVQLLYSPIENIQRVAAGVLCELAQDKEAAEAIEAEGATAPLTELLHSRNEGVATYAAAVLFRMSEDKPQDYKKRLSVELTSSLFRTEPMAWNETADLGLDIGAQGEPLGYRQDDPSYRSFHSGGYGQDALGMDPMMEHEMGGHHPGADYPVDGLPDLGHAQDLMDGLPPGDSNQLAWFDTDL
- Sequence (O00512 whole entry): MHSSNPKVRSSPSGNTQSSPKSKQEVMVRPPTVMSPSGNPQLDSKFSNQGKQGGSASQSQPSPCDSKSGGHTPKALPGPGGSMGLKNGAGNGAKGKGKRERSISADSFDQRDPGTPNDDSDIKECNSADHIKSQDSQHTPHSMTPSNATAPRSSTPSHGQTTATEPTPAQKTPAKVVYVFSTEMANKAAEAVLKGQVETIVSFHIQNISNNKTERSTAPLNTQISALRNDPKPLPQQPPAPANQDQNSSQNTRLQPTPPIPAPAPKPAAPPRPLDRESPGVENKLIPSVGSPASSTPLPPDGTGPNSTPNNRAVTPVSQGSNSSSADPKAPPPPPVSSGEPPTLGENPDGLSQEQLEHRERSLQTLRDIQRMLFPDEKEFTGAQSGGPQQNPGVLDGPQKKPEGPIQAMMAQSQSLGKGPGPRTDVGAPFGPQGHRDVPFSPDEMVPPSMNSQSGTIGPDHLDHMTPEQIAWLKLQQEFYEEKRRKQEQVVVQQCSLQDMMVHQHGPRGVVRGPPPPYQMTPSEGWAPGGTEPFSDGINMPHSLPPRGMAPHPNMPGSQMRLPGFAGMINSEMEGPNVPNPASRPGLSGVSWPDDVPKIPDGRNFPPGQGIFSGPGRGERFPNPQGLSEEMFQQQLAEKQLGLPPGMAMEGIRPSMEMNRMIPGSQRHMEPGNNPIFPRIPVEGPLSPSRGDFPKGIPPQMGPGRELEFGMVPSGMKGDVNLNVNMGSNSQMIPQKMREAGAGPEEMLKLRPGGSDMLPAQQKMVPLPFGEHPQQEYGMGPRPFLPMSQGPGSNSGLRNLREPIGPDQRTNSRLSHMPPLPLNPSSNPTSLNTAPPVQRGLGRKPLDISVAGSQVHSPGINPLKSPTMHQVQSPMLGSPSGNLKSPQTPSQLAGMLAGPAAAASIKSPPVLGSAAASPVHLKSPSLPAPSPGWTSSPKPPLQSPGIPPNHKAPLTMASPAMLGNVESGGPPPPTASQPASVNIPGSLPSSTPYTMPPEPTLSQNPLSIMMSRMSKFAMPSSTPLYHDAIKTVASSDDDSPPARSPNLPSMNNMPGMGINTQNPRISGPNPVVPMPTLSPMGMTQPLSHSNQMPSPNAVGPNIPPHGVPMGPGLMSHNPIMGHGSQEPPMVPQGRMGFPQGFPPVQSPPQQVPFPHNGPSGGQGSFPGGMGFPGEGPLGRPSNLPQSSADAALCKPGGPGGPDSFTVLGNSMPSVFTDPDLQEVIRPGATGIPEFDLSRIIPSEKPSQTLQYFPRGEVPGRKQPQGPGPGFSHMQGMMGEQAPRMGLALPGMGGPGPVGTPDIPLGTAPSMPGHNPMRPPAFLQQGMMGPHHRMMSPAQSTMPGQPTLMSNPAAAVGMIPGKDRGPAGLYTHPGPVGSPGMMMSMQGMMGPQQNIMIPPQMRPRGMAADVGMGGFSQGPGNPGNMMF
- METHOD DESCRIPTION: Inhibition of beta-catenin (unknown origin) to BCL9-FAM (unknown origin) protein-protein interaction preincubated for 2 hrs followed by BCL9 addition and measured after 2 hrs by fluorescence polarization assay
Catalogue of IC50 readings, one per entry.

# SMI, PARAMETER, ASSAY VALUE
records = [
    ("O=c1c(O)c(-c2ccc(O)c(OCCCN3CCCCC3)c2)oc2cc(O)cc(O)c12", "IC50", "18.6 µM"),
    ("O=c1c(O)c(-c2ccc(O)c(OCCCN3CCCC3)c2)oc2cc(O)cc(O)c12", "IC50", "25.7 µM"),
    ("O=c1c(O)c(-c2ccc(O)c(OCCN3CCCC3)c2)oc2cc(O)cc(O)c12", "IC50", "56.8 µM"),
    ("CN1CCN(CCOc2cc(-c3oc4cc(O)cc(O)c4c(=O)c3O)ccc2O)CC1", "IC50", "78.9 µM"),
    ("COc1cc(OCCCN2CCN(C)CC2)c2c(=O)c(O)c(-c3ccc(O)c(O)c3)oc2c1", "IC50", "9.69 µM"),
]

Ask: State its IC50: `O=c1c(O)c(-c2ccc(O)c(OCCN3CCCCC3)c2)oc2cc(O)cc(O)c12`
Reply: 31.1 µM

Ask: State its IC50: `CCN(CC)CCOc1cc(-c2oc3cc(O)cc(O)c3c(=O)c2O)ccc1O`
Reply: 27.9 µM

Ask: State its IC50: `O=c1c(O)c(-c2ccc(O)c(OCCCN3CCCCCC3)c2)oc2cc(O)cc(O)c12`
Reply: 20.1 µM

Ask: State its IC50: `O=c1c(O)c(-c2ccc(O)c(OCCN3CCOCC3)c2)oc2cc(O)cc(O)c12`
Reply: 30.2 µM

Ask: State its IC50: `CN1CCN(CCCOc2cc(O)c3c(=O)c(O)c(-c4ccc(O)c(O)c4)oc3c2)CC1`
Reply: 9.13 µM

Values compiled from ChEMBL document CHEMBL5346872.
